Value source: patent US11091463B2

molecular target: human V1a receptor (Homo sapiens); construct: expressed in transfected cells; host or cells: CHO K1 (ATCC), also stably transfected with a modified aequorin; experiment: Cellular in vitro assay for vasopressin receptor activity, V1a receptor cell line (photoprotein luminescence); format: cell-based; conditions: Table 1A; compounds of the invention; selectivity ratio
Sequence (P37288 whole entry): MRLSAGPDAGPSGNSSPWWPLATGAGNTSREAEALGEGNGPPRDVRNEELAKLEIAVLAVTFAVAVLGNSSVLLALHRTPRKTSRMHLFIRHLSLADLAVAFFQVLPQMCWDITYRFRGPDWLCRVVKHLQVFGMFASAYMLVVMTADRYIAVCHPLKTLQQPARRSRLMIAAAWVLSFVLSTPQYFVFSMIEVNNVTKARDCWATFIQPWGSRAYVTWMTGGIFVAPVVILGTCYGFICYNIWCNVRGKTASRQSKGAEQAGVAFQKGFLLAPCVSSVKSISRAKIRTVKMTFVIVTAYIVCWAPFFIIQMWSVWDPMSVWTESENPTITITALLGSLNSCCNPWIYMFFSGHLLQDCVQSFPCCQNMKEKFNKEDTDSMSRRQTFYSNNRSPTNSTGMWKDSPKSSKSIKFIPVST
Doc: threshold 50 (exclusive). Items with ratio IC50 hV2/hV1a beneath it return fulfilled; others return not fulfilled.

CPD_SMILES	MEASURED_TARGET	CAT
NC(=O)c1nc(Cn2nc(-c3ccc(Cl)cc3)n(C[C@H](O)C(F)(F)F)c2=O)nn1-c1cnccc1Cl	human V1a receptor (Homo sapiens)	fulfilled
NC(=O)c1nc(Cn2nc(-c3ccc(Cl)cc3)n(CC(=O)C(F)(F)F)c2=O)nn1-c1cnccc1Cl	human V1a receptor (Homo sapiens)	not fulfilled
CCOC(=O)c1ccncc1-n1nc(Cn2nc(-c3ccc(Cl)cc3)n(C[C@H](O)C(F)(F)F)c2=O)nc1C(N)=O	human V1a receptor (Homo sapiens)	fulfilled
NC(=O)c1nc(Cn2nc(-c3ccc(Cl)cc3)n(C[C@H](O)C(F)(F)F)c2=O)nn1-c1cnccc1C(F)(F)F	human V1a receptor (Homo sapiens)	not fulfilled
NC(=O)c1nc(Cn2nc(-c3ccc(Cl)cc3)n(C[C@@H](O)C(F)(F)F)c2=O)nn1-c1ncccc1C(F)(F)F	human V1a receptor (Homo sapiens)	not fulfilled
NC(=O)c1nc(Cn2nc(-c3ccc(Cl)cc3)n(CC(=O)C(F)(F)F)c2=O)nn1-c1ncccc1C(F)(F)F	human V1a receptor (Homo sapiens)	not fulfilled

Next, consider the following compound.
Please indicate whether the reported ratio IC50 hV2/hV1a of `NC(=O)c1nc(Cn2nc(-c3ccc(Cl)cc3)n(C[C@H](O)C(F)(F)F)c2=O)nn1-c1ncccc1Br` is strictly below 50. not fulfilled
